Source listed as PubChem BioAssay (NCI).

Tested on: NCI-H460 lung
experiment_description: NCI tumour cell line growth inhibition, 48 h
property: TGI

{"compound": "COc1ccc(N=NC(=Nc2ccc(Cl)cc2)c2ccc(N(CCC#N)CCC#N)cc2)cc1", "obs_value": "> 100 µM"}
{"compound": "CC(C(N)C(=O)NC(C(=O)O)C1OC(n2ccc(=O)[nH]c2=O)C(O)C1O)C(O)c1ccc(O)cn1 (centres undefined)", "obs_value": "> 100 µM"}
{"compound": "CN(C)CCNC(=O)Cn1cnc2cccc([N+](=O)[O-])c2c1=O", "obs_value": "> 100 µM"}
{"compound": "O=[N+]([O-])c1cc(C(F)(F)F)ccc1Sc1ccc(C(F)(F)F)cc1[N+](=O)[O-]", "obs_value": "> 100 µM"}
{"compound": "c1ccc(C(=NCCC2CNc3ccccc32)c2ccccc2)cc1 (centres undefined)", "obs_value": "> 100 µM"}
{"compound": "COc1ccc(C2=C(N)c3ncccc3C2=O)cc1", "obs_value": "> 100 µM"}
{"compound": "COC(=O)[C@H]1COC(=O)N1", "obs_value": "> 100 µM"}
{"compound": "CC(=O)OCC1OC(O[C@@H]2C[C@H]3C(C)(C)[C@@H](OC(C)=O)CC[C@]3(C)[C@H]3CC[C@]45C[C@]4(CC[C@H]5[C@@H](C)C[C@@H](O)[C@H](O)C(C)(C)F)[C@@]32C)C(O)C(O)C1O (some centres undefined)", "obs_value": "> 100 µM"}
{"compound": "CCOC(=O)C1=C(C)N(Cc2ccc(Cl)cc2Cl)C2(O)C=CC(=O)C3=C(O)c4ccccc4C(=O)C312 (centres undefined)", "obs_value": "43.2 µM"}
{"compound": "CCCCCCCCCNC(=O)/C=C/c1ccc(O)c(O)c1", "obs_value": "57.1 µM"}
{"compound": "O=C(NO)[C@@H](Cc1ccccc1)NS(=O)(=O)c1ccc(-c2ccccc2)cc1", "obs_value": "> 25 µM"}
{"compound": "CC(=O)O[C@H](C[C@H](C(C)C)N(C)C(=O)[C@@H](NC(=O)[C@H]1CCCN1C)C(C)C)c1nc(C(=O)N[C@@H](Cc2ccccc2)C[C@H](C)C(=O)O)c(C)s1", "obs_value": "> 16.7 µM"}
{"compound": "CC(C)(C)c1ccc(OCCOCCOc2ccc(C(C)(C)C)cc2S(=O)(=O)Nc2ccc([N+](=O)[O-])cc2)c(S(=O)(=O)Nc2ccc([N+](=O)[O-])cc2)c1", "obs_value": "> 100 µM"}
{"compound": "Nc1n[n+](-c2ccccc2)no1", "obs_value": "> 100 µM"}
{"compound": "CCc1cc(CCC(=O)Nc2ccccc2[N+](=O)[O-])[nH]c(=S)n1", "obs_value": "> 100 µM"}
{"compound": "O=C1c2ccccc2-c2c1c1c(O)cccc1n2Cc1ccccn1", "obs_value": "> 100 µM"}
{"compound": "CC(=O)O[C@@]1(C)[C@@H](C)C(=O)O[C@@H]2CCN3CC=C(COC(=O)[C@]1(C)O)[C@H]23", "obs_value": "> 100 µM"}
{"compound": "CC(=O)c1ccc2c(c1)CC1(C2)Cc2ccc3c(c2C1=O)CCC3 (centres undefined)", "obs_value": "> 100 µM"}
{"compound": "O=C(NC(Cc1cnc[nH]1)C(=O)N1CCCC1)C1CCCC1 (centres undefined)", "obs_value": "> 100 µM"}
{"compound": "Cn1c(N)nc(=O)c2c1N(C1OC(CO)C(O)C1O)CN2Cc1ccccc1 (centres undefined)", "obs_value": "> 100 µM"}
{"compound": "COc1ccc(NC(C)=O)c(C(O)CCNC(C)=O)c1 (centres undefined)", "obs_value": "> 100 µM"}
{"compound": "COc1cc(C(=O)CC2OC(=O)C(Cl)=C2Cl)ccc1Cl (centres undefined)", "obs_value": "> 100 µM"}
{"compound": "CCc1ccc(C(=Nc2ccc(N(C)C(=O)CN3CCN(C)CC3)cc2)c2c(O)[nH]c3ccc(C(=O)OC)cc23)cc1", "obs_value": "2.21 µM"}
{"compound": "Cc1ccc(OCC2OC(n3cnc4c(Cl)nc(Cl)nc43)CC2Oc2ccc(C)cc2)cc1 (centres undefined)", "obs_value": "3.39 µM"}
{"compound": "N#Cc1cc(S(=O)(=O)Nc2nnc(-c3ccccc3)c(-c3ccccc3)n2)c(SCc2ccccc2)cc1Cl", "obs_value": "> 100 µM"}
{"compound": "CN(C)CCNc1c2ccccc2nc2oc3ccccc3c12", "obs_value": "13.3 µM"}
{"compound": "COc1ccc(/C=C2\\CCC(CCN(C)C)(C3=CCCC3)C2=O)cc1Br (centres undefined)", "obs_value": "25.6 µM"}
{"compound": "CO/N=C\\c1cc(O)c(O)c(/C=N/OC)c1", "obs_value": "> 100 µM"}
{"compound": "CCCCCCCCCCCCCCCCCCOCC(CCP(=O)(CP(=O)(O)O)Oc1ccccc1)OCCCCCCCCCCCCCCCCCC (centres undefined)", "obs_value": "> 100 µM"}
{"compound": "Cc1nc2[nH]ncn2c(=O)c1CCCl", "obs_value": "> 10 µM"}
{"compound": "CN(C)c1snc2c1c(=O)n(C)c(=O)n2C", "obs_value": "> 100 µM"}
{"compound": "COc1cc(-c2csc(NC(=O)Nc3ccc(C(F)(F)F)cc3)n2)cc(OC)c1OC", "obs_value": "7.01 µM"}
{"compound": "COc1ccc2c(c1)C(=O)/C(=C/c1ccc([N+](=O)[O-])o1)O2", "obs_value": "3.83 µM"}
{"compound": "CC1(C(=O)Nc2ccc3ccccc3c2)CC2(C)CC(C)(C1)C(O)NC2=O (centres undefined)", "obs_value": "> 100 µM"}
{"compound": "COc1cc2c(cc1OC)C(=O)C1(C2)[C@H](c2ccccc2)C2C(=O)c3cc(OC)c(OC)cc3C2[C@H]1c1ccccc1 (some centres undefined)", "obs_value": "> 100 µM"}
{"compound": "CC(=O)OCC(C)(COC(C)=O)N1C(=O)C2C3c4ccccc4C(c4ccccc43)C2C1=O (centres undefined)", "obs_value": "> 100 µM"}
{"compound": "O=C(O)CCC(N=NNc1ccc(-c2nc3ccccc3[nH]2)cc1)C(=O)O (centres undefined)", "obs_value": "> 100 µM"}
{"compound": "NC1=NN(c2ccccc2)C(=O)C1C(=O)C(=O)Nc1nccs1 (centres undefined)", "obs_value": "> 100 µM"}
{"compound": "CCNC12CCC(C1)C(C)(C)C2=O (centres undefined)", "obs_value": "> 100 µM"}

* * *

Tested on: SK-MEL-5 melanoma
experiment_description: NCI tumour cell line growth inhibition, 48 h; in the data active = GI50 below about 0.43 µM; inactive = the rest
Outcome codes: active, inactive

{"compound": "O=C(Nc1cccc(Cl)c1)c1cccc(NC2=C(Cl)C(=O)N(Cc3ccccc3)C2=O)c1", "system_tested": "SK-MEL-5 melanoma", "label_class": "inactive"}
{"compound": "CN(CC(=O)Nc1nc2ccccc2[nH]1)S(=O)(=O)c1ccc(Cl)cc1", "system_tested": "SK-MEL-5 melanoma", "label_class": "inactive"}
{"compound": "CC(=[N-])N1CCC[C@@H](Nc2c3ccccc3nc3ccccc23)C1.[Cl][Pt].[NH-]CCC[NH-]", "system_tested": "SK-MEL-5 melanoma", "label_class": "active"}
{"compound": "CC([C@H]1CCC2C3CCC4C[C@@H](N)CC[C@]4(C)C3CC[C@@]21C)N(C)C (stereo not given in full)", "system_tested": "SK-MEL-5 melanoma", "label_class": "inactive"}
{"compound": "O=C1c2ccccc2-c2c1c1c(O)cccc1n2Cc1ccccn1", "system_tested": "SK-MEL-5 melanoma", "label_class": "inactive"}

* * *

System: HCT-116 colon
experiment_description: NCI tumour cell line growth inhibition, 48 h
property: GI50

{"smiles_record": "Cc1cc(N2CCOCC2)nc(N(CCCNc2ccnc3cc(Cl)ccc23)Cc2ccco2)n1", "obs_value": "2.2 µM"}
{"smiles_record": "CCC(=O)Nc1ccc(C)c(-c2ccc(C(=O)NCC3CC3)cc2)c1", "obs_value": "> 25 µM"}
{"smiles_record": "CCN(CC)C(=S)SCN1C(=O)c2ccccc2S1(=O)=O", "obs_value": "54.2 µM"}
{"smiles_record": "C/C(O)=C(\\C#N)C(=O)Nc1ccc(C(F)(F)F)cc1", "obs_value": "7.5 µM"}
{"smiles_record": "CCn1c(-c2nonc2N)nc2c(C#CC(C)(C)O)ncc(OC[C@H]3CCCNC3)c21", "obs_value": "12.9 µM"}
{"smiles_record": "Fc1cccc(-n2ccc(-c3ccccc3)nc2=S)c1", "obs_value": "21.9 µM"}
{"smiles_record": "O=C(O)c1c(=O)cccc2ssc12", "obs_value": "1.62 µM"}
{"smiles_record": "O=C1c2ccccc2-c2c1c1c(O)cccc1n2Cc1ccccn1", "obs_value": "63.5 µM"}
{"smiles_record": "CCOC(=O)C#Cc1c(C(=O)OCC)nnn1Cc1ccc([N+](=O)[O-])cc1", "obs_value": "2.02 µM"}
